test: Pharmacokinetics of dihydroartemisinin (DHA), active metabolite, in plasma after multiple intravenous AS doses, non-compartmental analysis; type: in vivo, human; details: human, plasma, iv, 4 mg/kg
READOUT NAME: Cmax (ng/mL)
Answers are plain numbers, in ng/mL.

Prompt: Indicate its recorded Cmax; the compound in question is C[C@H]1[C@@H](O)O[C@@H]2O[C@@]3(C)CC[C@H]4[C@H](C)CC[C@@H]1[C@@]24OO3 [DHA, dihydroartemisinin]
Response: 3020

====

assay: Pharmacokinetics of artesunate (AS) in plasma after multiple intravenous doses, compartmental analysis (Phase 1b); format: in vivo, human; conditions: human, plasma, iv, 8 mg/kg, Day 2; AS 8 mg/kg iv daily for 3 days, 2 min infusion; mean (CV%), n = 6; CA
READOUT NAME: AUC(0-inf) (ng·h/mL)
One number for each entry, in ng·h/mL.

Prompt: Indicate its recorded AUC(0-inf); the compound in question is C[C@H]1[C@H](OC(=O)CCC(=O)O)O[C@@H]2O[C@@]3(C)CC[C@H]4[C@H](C)CC[C@@H]1[C@@]24OO3 [AS]
Response: 6670

====

test: Pharmacokinetics of artesunate (AS) in plasma after multiple intravenous doses, compartmental analysis (Phase 1b); assay type: in vivo, human; details: human, plasma, iv, 8 mg/kg, Day 1; AS 8 mg/kg iv daily for 3 days, 2 min infusion; mean (CV%), n = 6; CA
READOUT NAME: AUC(0-inf) (ng·h/mL)
Give bare numbers, in ng·h/mL.

Prompt: Indicate its recorded AUC(0-inf); the compound in question is C[C@H]1[C@H](OC(=O)CCC(=O)O)O[C@@H]2O[C@@]3(C)CC[C@H]4[C@H](C)CC[C@@H]1[C@@]24OO3 [AS]
Response: 6020

====

assay: Pharmacokinetics of dihydroartemisinin (DHA), active metabolite, in plasma after multiple intravenous AS doses, non-compartmental analysis; format: in vivo, human; conditions: human, plasma, iv, 8 mg/kg; read-out: Tmax
READOUT NAME: Tmax (min)
Answers are plain numbers, in min.

Prompt: Indicate its recorded Tmax; the molecule in question is C[C@H]1[C@@H](O)O[C@@H]2O[C@@]3(C)CC[C@H]4[C@H](C)CC[C@@H]1[C@@]24OO3 [DHA, dihydroartemisinin]
Response: 15

====

assay: Pharmacokinetics of artesunate (AS) in plasma after multiple intravenous doses, compartmental analysis (Phase 1b); format: in vivo, human; conditions: human, in vivo, iv, 8 mg/kg, Day 2; AS 8 mg/kg iv daily for 3 days, 2 min infusion; mean (CV%), n = 6; CA; read-out: t1/2 elimination (converted)
READOUT NAME: half-life
Answers without a unit are incomplete; give the number and then its unit.

Prompt: Indicate its recorded half-life; the compound in question is C[C@H]1[C@H](OC(=O)CCC(=O)O)O[C@@H]2O[C@@]3(C)CC[C@H]4[C@H](C)CC[C@@H]1[C@@]24OO3
Response: 11.4 min

====

test: Pharmacokinetics of dihydroartemisinin (DHA), active metabolite, in plasma after multiple intravenous AS doses, non-compartmental analysis; format: in vivo, human; settings: human, plasma, iv, 2 mg/kg
READOUT NAME: Cmax (ng/mL)
One number for each entry, in ng/mL.

Prompt: Indicate its recorded Cmax; the molecule in question is C[C@H]1[C@@H](O)O[C@@H]2O[C@@]3(C)CC[C@H]4[C@H](C)CC[C@@H]1[C@@]24OO3 [DHA, dihydroartemisinin]
Response: 1740

====

assay: Pharmacokinetics of dihydroartemisinin (DHA), active metabolite, in plasma after multiple intravenous AS doses, non-compartmental analysis; format: in vivo, human; conditions: human, plasma, iv, 2 mg/kg, Day 1; DHA after AS 2 mg/kg iv daily for 3 days, 2 min infusion; mean (CV%), n = 6; NCA; read-out: t1/2 elimination (converted)
READOUT NAME: half-life (h)
Numbers only, in h.

Prompt: Indicate its recorded half-life; the molecule in question is C[C@H]1[C@@H](O)O[C@@H]2O[C@@]3(C)CC[C@H]4[C@H](C)CC[C@@H]1[C@@]24OO3 [DHA, dihydroartemisinin]
Response: 1.19

====

assay: Pharmacokinetics of artesunate (AS) in plasma after multiple intravenous doses, compartmental analysis (Phase 1b); format: in vivo, human; conditions: human, plasma, iv, 4 mg/kg, Day 1; AS 4 mg/kg iv daily for 3 days, 2 min infusion; mean (CV%), n = 6; CA
READOUT NAME: Cmax (ng/mL)
One number for each entry, in ng/mL.

Prompt: Indicate its recorded Cmax; the compound in question is C[C@H]1[C@H](OC(=O)CCC(=O)O)O[C@@H]2O[C@@]3(C)CC[C@H]4[C@H](C)CC[C@@H]1[C@@]24OO3
Response: 40600

====

assay: Pharmacokinetics of artesunate (AS) in plasma after multiple intravenous doses, compartmental analysis (Phase 1b); format: in vivo, human; details: human, plasma, iv, 4 mg/kg, Day 2; AS 4 mg/kg iv daily for 3 days, 2 min infusion; mean (CV%), n = 6; CA
READOUT NAME: AUC(0-inf) (ng·h/mL)
Numbers only, in ng·h/mL.

Prompt: Indicate its recorded AUC(0-inf); the molecule in question is C[C@H]1[C@H](OC(=O)CCC(=O)O)O[C@@H]2O[C@@]3(C)CC[C@H]4[C@H](C)CC[C@@H]1[C@@]24OO3
Response: 2630

====

test: Pharmacokinetics of artesunate (AS) in plasma after multiple intravenous doses, compartmental analysis (Phase 1b); format: in vivo, human; details: human, plasma, iv, 8 mg/kg, Day 3; AS 8 mg/kg iv daily for 3 days, 2 min infusion; mean (CV%), n = 6; CA; read-out: CL_obs
READOUT NAME: clearance (mL/min/kg)
Numbers only, in mL/min/kg.

Prompt: Indicate its recorded clearance; the molecule in question is C[C@H]1[C@H](OC(=O)CCC(=O)O)O[C@@H]2O[C@@]3(C)CC[C@H]4[C@H](C)CC[C@@H]1[C@@]24OO3
Response: 28.9

====

assay: Pharmacokinetics of artesunate (AS) in plasma after multiple intravenous doses, compartmental analysis (Phase 1b); assay type: in vivo, human; details: human, plasma, iv, 4 mg/kg, Day 3; AS 4 mg/kg iv daily for 3 days, 2 min infusion; mean (CV%), n = 6; CA
READOUT NAME: AUC(0-inf) (ng·h/mL)
Give bare numbers, in ng·h/mL.

Prompt: Indicate its recorded AUC(0-inf); the compound in question is C[C@H]1[C@H](OC(=O)CCC(=O)O)O[C@@H]2O[C@@]3(C)CC[C@H]4[C@H](C)CC[C@@H]1[C@@]24OO3
Response: 3520

====

experiment: Pharmacokinetics of dihydroartemisinin (DHA), active metabolite, in plasma after multiple intravenous AS doses, non-compartmental analysis; format: in vivo, human; details: human, plasma, iv, 4 mg/kg, Day 1; DHA after AS 4 mg/kg iv daily for 3 days, 2 min infusion; mean (CV%), n = 6; NCA
READOUT NAME: MRT

Prompt: Indicate its recorded MRT; the molecule in question is C[C@H]1[C@@H](O)O[C@@H]2O[C@@]3(C)CC[C@H]4[C@H](C)CC[C@@H]1[C@@]24OO3 [DHA, dihydroartemisinin]
Response: 1.91 h

====

test: Pharmacokinetics of artesunate (AS) in plasma after multiple intravenous doses, compartmental analysis (Phase 1b); type: in vivo, human; conditions: human, plasma, iv, 4 mg/kg, Day 2; AS 4 mg/kg iv daily for 3 days, 2 min infusion; mean (CV%), n = 6; CA
READOUT NAME: Cmax (ng/mL)
Numbers only, in ng/mL.

Prompt: Indicate its recorded Cmax; the compound in question is C[C@H]1[C@H](OC(=O)CCC(=O)O)O[C@@H]2O[C@@]3(C)CC[C@H]4[C@H](C)CC[C@@H]1[C@@]24OO3
Response: 34400

====

assay: Pharmacokinetics of artesunate (AS) in plasma after multiple intravenous doses, compartmental analysis (Phase 1b); assay type: in vivo, human; settings: human, plasma; Day 2; AS 8 mg/kg iv daily for 3 days, 2 min infusion; n = 6; CA; read-out: Tmax (converted)
READOUT NAME: Tmax
Answers without a unit are incomplete; give the number and then its unit.

Prompt: Indicate its recorded Tmax; the molecule in question is C[C@H]1[C@H](OC(=O)CCC(=O)O)O[C@@H]2O[C@@]3(C)CC[C@H]4[C@H](C)CC[C@@H]1[C@@]24OO3
Response: 2 min

====

experiment: Pharmacokinetics of artesunate (AS) in plasma after multiple intravenous doses, compartmental analysis (Phase 1b); format: in vivo, human; details: human, plasma, iv, 4 mg/kg, Day 3; AS 4 mg/kg iv daily for 3 days, 2 min infusion; mean (CV%), n = 6; CA; read-out: MRT
READOUT NAME: MRT (min)
Give bare numbers, in min.

Prompt: Indicate its recorded MRT; the molecule in question is C[C@H]1[C@H](OC(=O)CCC(=O)O)O[C@@H]2O[C@@]3(C)CC[C@H]4[C@H](C)CC[C@@H]1[C@@]24OO3 [AS]
Response: 4.8

The reported measurements were obtained from paper PMC3468400.
